Assay: NCI Yeast Anticancer Drug Screen. Data for the mlh1 rad18 strain (AID 175)
Conditions: S. cerevisiae mlh1 rad18 strain growth inhibition; at 50.0 µM; hits give high values
The panel holds about 79,000 compounds, 15% with a hit somewhere; the sample as a whole holds those more often.
Parameter: growth inhibition. Scope: all listed entries.
Form entry: value (%) — number only.

{"COMPOUND": "COc1cc(-c2cc(O)c(-c3ccc4ccccc4n3)c(=O)[nH]2)cc(OC)c1OC", "READING UNIT": "%", "growth inhibition": 23.4}
{"COMPOUND": "COc1ccc(N=C2C(=Nc3ccc(OC)cc3)N(c3ccc(OC)cc3)C(=S)N2C)cc1", "READING UNIT": "%", "growth inhibition": 13.5}
{"COMPOUND": "O=C1OC(=O)C2C1C1c3ccccc3C2(O)c2ccccc21 (stereo unspecified)", "READING UNIT": "%", "growth inhibition": -0.6}

Fill blank: measured growth inhibition of the compound CCOC(CCl)(NC(C)=O)C(=O)OC (stereo unspecified) is ____.
-8.1

So what does the record say about growth inhibition for COc1cc(C(C#N)NNc2nc(C)cc(=O)[nH]2)cc(OC)c1OC (stereo unspecified) ?
-12.9

Field request: growth inhibition | item: N[C@@H](C[C@H]1CCC(=O)[C@@H]2O[C@H]12)C(=O)O
-10.9
